Conditions: buffer; pH 7.4; 200.0 µM
I'd be grateful if you could share measured log10 solubility kinetic for these entries.
Field: value | Transform: log10 | Quantity: solubility kinetic | Unit: µg/mL

input: Reported log10 solubility kinetic, compound `O=C(Nc1ccc(Cl)cc1)c1csc(Cc2ccccc2)n1` : ____
output: 0.04

input: Another compound: `C=C(C)c1cccc(C(C)(C)NC(=O)Nc2cccnc2)c1`
output: 0.97

input: Another compound: `O=C(CN1c2cccc3cccc(c23)S1(=O)=O)N1CCN(c2ccccc2)CC1`
output: 0.53

input: Another compound: `CCOC(=O)/C=C(C)\C=C\c1c[nH]c2ccccc12`
output: 1.10

input: Another compound: `Cc1cccc[n+]1CC(=O)c1ccc(Cl)cc1.[Cl-]`
output: 1.52

###

I'd be grateful if you could share measured solubility kinetic for these entries.
Conditions: buffer; pH 7.4; 200.0 µM

input: Reported solubility kinetic, compound `O=[N+]([O-])c1ccccc1S(=O)(=O)NC1CCCCCCC1` : ____
output: 20.1 µg/mL

input: Another compound: `O=C(NC1CCCC1)c1cc2cc(Br)ccc2o1`
output: 6.1 µg/mL

input: Another compound: `Cc1ccc(OCCNC(=O)c2ccc(C)cc2)cc1`
output: 3.8 µg/mL

input: Another compound: `Cc1cnc(NC(=O)c2ccc3c(c2)OCCO3)s1`
output: 4.4 µg/mL

input: Another compound: `O=S1(=O)C[C@@H](O)[C@@H](Nc2ccccc2)C1`
output: > 34.1 µg/mL

input: Another compound: `Cc1ccccc1S(=O)(=O)/N=C(/Nc1nc2ccccc2s1)c1ccccc1`
output: 1.1 µg/mL

input: Another compound: `CC(=O)c1c(COC(=O)c2ccc(Cl)cc2)nc2ccccc2[n+]1[O-]`
output: 0.6 µg/mL

input: Another compound: `N#C/C=C/N1CCN(C(=O)c2ccco2)CC1`
output: > 34.7 µg/mL

input: Another compound: `CS(=O)(=O)Nc1ccc(C(=O)Nc2ccc3c(c2)OCO3)cc1`
output: 6.2 µg/mL

input: Another compound: `CCOc1ccc(S(=O)(=O)N2CN3CCN(C3)C2)cc1`
output: > 44.6 µg/mL

input: Another compound: `CCCCNC(=O)N1CCCN(c2ccc(C#N)cn2)CC1`
output: > 45.2 µg/mL

input: Another compound: O=C(CN1C(=O)C2CC=CCC2C1=O)NC1CCCCC1 (stereo unspecified)
output: 42.5 µg/mL

input: Another compound: `Cc1cc(-c2cccs2)c(C#N)c(=S)[nH]1`
output: 28.3 µg/mL

input: Another compound: `Cc1cc(C)c(NC(=S)NCCCSC2CCCCC2)c(C)c1`
output: 6.1 µg/mL

input: Another compound: `CC(=O)CSc1nnc2cc(C)c3ccccc3n12`
output: > 40.7 µg/mL

input: Another compound: `Cc1ccc(NC(=O)NCCN2CCCCC2)cc1`
output: > 39.2 µg/mL

input: Another compound: `CC1CCN(C(=O)CSc2nc3ncccc3[nH]2)CC1`
output: > 43.6 µg/mL

input: Another compound: `CC(C)CNc1nc(N)c([N+](=O)[O-])c(N2CCCCCC2)n1`
output: 4.5 µg/mL

input: Another compound: `COc1ccc([N+](=O)[O-])cc1NC(=O)CCN1CCOCC1`
output: > 46.4 µg/mL

input: Another compound: `Cc1ccnc(NCc2cc(C)ccc2O)c1`
output: 6 µg/mL

input: Another compound: `Cc1ccc2[nH]c(C(=O)Nc3ccc(F)cc3)cc2c1`
output: < 0.3 µg/mL

input: Another compound: `Cc1csc(NC(=O)c2ccc3c(c2)OCO3)n1`
output: 31.4 µg/mL

input: Another compound: `O=C1CNC(=S)N1CCc1ccccc1Cl`
output: > 38.2 µg/mL

input: Another compound: `CCCC(=O)Nc1nnc(SCC(=O)NC2CC2)s1`
output: > 45.1 µg/mL

input: Another compound: `COc1cccc(Nc2ccc(C(=O)O)cc2N)c1`
output: > 38.7 µg/mL

input: Another compound: COc1ccc2c(c1)nc(SCC(O)c1ccccc1)n2C (stereo unspecified)
output: 41.3 µg/mL

input: Another compound: `NC(N)=S`
output: > 11.4 µg/mL

input: Another compound: `Cc1ccc(NC(=S)NCc2ccc(F)cc2)c(C)c1`
output: 36.2 µg/mL

input: Another compound: `O=C(Nc1cccc2ncccc12)c1ccccc1Cl`
output: 18.5 µg/mL

input: Another compound: `CCOc1ccccc1NC(=O)CN1CCc2ccccc2C1`
output: 1.9 µg/mL

input: Another compound: CC1CCCN(C2(O)C(=O)Nc3ccc(Br)cc32)C1 (stereo unspecified)
output: > 48.8 µg/mL

input: Another compound: `Cc1ccnc(N2CCC(C(=O)NNC(=O)c3ccncc3)CC2)n1`
output: > 51.1 µg/mL

input: Another compound: `CN1C=C/C(=C\c2cc[n+](C)c3ccccc23)c2ccccc21.[I-]`
output: 40.1 µg/mL

input: Another compound: `CN(C)c1nc(C#N)nc(N(C)C)n1`
output: 22.3 µg/mL

input: Another compound: `Cc1nc(C)c(Oc2ccc(Cl)cc2Cl)c(=O)[nH]1`
output: 6.9 µg/mL

input: Another compound: `CCOC(=O)c1sc(N)c(C(=O)OCC)c1C`
output: 4.4 µg/mL

input: Another compound: `CS(=O)(=O)Nc1ccc2c(c1)ncn2CCc1ccccc1`
output: > 47.3 µg/mL

input: Another compound: `Cc1ccc(C2=NOC(=O)/C2=C\c2ccccc2)cc1`
output: 33.7 µg/mL

input: Another compound: `O=C(CN1CCN(c2ccc(F)cc2)CC1)NCc1ccc(Cl)cc1`
output: 51.2 µg/mL

input: Another compound: `CCN(Cc1ccccc1)C(=O)COC(=O)c1cc(Cl)nc(Cl)c1`
output: > 55.1 µg/mL

input: Another compound: `O=C(NCc1cc2ccccc2[nH]1)c1ccccc1F`
output: > 40.2 µg/mL

input: Another compound: OC1NC(=S)N(c2ccccc2)C1O (stereo unspecified)
output: > 31.5 µg/mL

input: Another compound: `CCc1ccc(C(=O)Nc2nc(C)cs2)s1`
output: 32.9 µg/mL

input: Another compound: `Cc1ccccc1NC(=O)c1ccc2ccccc2c1`
output: 1.2 µg/mL

input: Another compound: CCCc1cc(=O)[nH]c(SCC(=O)c2cc(C)n(CC3CCCO3)c2C)n1 (stereo unspecified)
output: > 58.4 µg/mL

input: Another compound: `O=C1CN(C(=O)COC(=O)c2ccc(Cl)c(S(=O)(=O)N3CCCCC3)c2)c2ccccc2N1`
output: 4.7 µg/mL

input: Another compound: `CN1CCC(CN)(N2CCN(c3ccccc3)CC2)CC1`
output: 41.9 µg/mL

input: Another compound: `CN1CCC(N(C)c2ccc(C(N)=O)cc2[N+](=O)[O-])CC1`
output: 40.1 µg/mL

input: Another compound: `N#Cc1c(Nc2ccccc2Cl)s[nH]c1=O`
output: > 37.8 µg/mL

input: Another compound: `Cc1ccc(C(=O)NCC(=O)OCc2c(F)cccc2Cl)s1`
output: 9.2 µg/mL

input: Another compound: `N#Cc1ccccc1OCC(=O)Nc1ccccc1C(=O)NC1CC1`
output: 48.3 µg/mL
